Reference source: patent US6512136B1

Target: liver COMT (Rattus norvegicus, UniProt P22734)
Construct: Aliquots of 0.5 ml of liver and whole brain homogenates were preincubated; from tissue; host or cells: liver homogenate of male Wistar rats
Test: Liver COMT activity in homogenates after administration of test compounds by gastric tube
Format: in vivo
Conditions: rat liver homogenate, 0.5 h after administration by gastric tube; mean ± S.E.M., n=4
metric: % inhibition of COMT activity, liver, 0.5 h (%)
Number only, in %; omit the unit.

[in] // returns reported % inhibition of COMT activity, liver, 0.5 h for input O=C(CCc1ccccc1)c1cc(O)c(O)c([N+](=O)[O-])c1 [C]
[out] 98.4

----------
Molecular target: rat brain COMT (Rattus norvegicus, UniProt P22734)
Construct: Aliquots of 0.5 ml of liver and whole brain homogenates were preincubated
Test: In vitro COMT inhibition, rat brain homogenate (methylation of adrenaline to metanephrine)
metric: IC50 (nM)
Number only, in nM; omit the unit.

// below: answered compounds
[in] // returns reported IC50 for input O=C(CCCc1ccccc1)c1cc(O)c(O)c([N+](=O)[O-])c1
[out] 2.9

[in] Please answer likewise for O=C(c1ccccc1)c1cc(O)c(O)c([N+](=O)[O-])c1 [Compound A, 3,4-dihydroxy-5-nitrobenzophenone]
[out] 7.1

Further cases:
[in] // returns reported IC50 for input O=C(CCc1ccccc1)c1cc(O)c(O)c([N+](=O)[O-])c1
[out] 3.1

[in] Please answer likewise for O=C(CCCCc1ccccc1)c1cc(O)c(O)c([N+](=O)[O-])c1
[out] 6.7

----------
Target: liver COMT (Rattus norvegicus, UniProt P22734)
Construct: Aliquots of 0.5 ml of liver and whole brain homogenates were preincubated; from tissue; host or cells: liver homogenate of male Wistar rats
Experiment: Liver COMT activity in homogenates after administration of test compounds by gastric tube
Format: in vivo
Details: rat liver homogenate, 9 h after administration by gastric tube; mean ± S.E.M., n=4
// reported % inhibition of COMT activity, liver, 9 h for each item listed
Answer format reminder: number followed by unit.

// below: answered compounds
[in] # query: % inhibition of COMT activity, liver, 9 h | item O=C(CCCc1ccccc1)c1cc(O)c(O)c([N+](=O)[O-])c1 | system: liver COMT (Rattus norvegicus, UniProt P22734)
[out] 39.0 ± 13.2%

[in] Please answer likewise for O=C(CCCCc1ccccc1)c1cc(O)c(O)c([N+](=O)[O-])c1
[out] −4.0 ± 8.0%

[in] Please answer likewise for O=C(CCc1ccccc1)c1cc(O)c(O)c([N+](=O)[O-])c1
[out] 39.9 ± 11.1%

[in] Please answer likewise for O=C(c1ccccc1)c1cc(O)c(O)c([N+](=O)[O-])c1 [Compound A, 3,4-dihydroxy-5-nitrobenzophenone]
[out] 31.7 ± 5.5%

Further cases:
[in] # query: % inhibition of COMT activity, liver, 9 h | item Cc1ccc(C(=O)c2cc(O)c(O)c([N+](=O)[O-])c2)cc1 [Tolcapone, reference compound] | system: liver COMT (Rattus norvegicus, UniProt P22734)
[out] 67.0 ± 4.0%

----------
Target: liver COMT (Rattus norvegicus)
Construct: Aliquots of 0.5 ml of liver and whole brain homogenates were preincubated; from tissue; host or cells: liver homogenate of male Wistar rats
Assay: Liver COMT activity in homogenates after administration of test compounds by gastric tube
Assay type: in vivo
Details: rat liver homogenate, 1 h after administration by gastric tube; mean ± S.E.M., n=4
// reported % inhibition of COMT activity, liver, 1 h for each item listed
Number only, in %; omit the unit.

// below: answered compounds
[in] // returns reported % inhibition of COMT activity, liver, 1 h for input Cc1ccc(C(=O)c2cc(O)c(O)c([N+](=O)[O-])c2)cc1 [Tolcapone, reference compound]
[out] 99.9

[in] Please answer likewise for O=C(CCc1ccccc1)c1cc(O)c(O)c([N+](=O)[O-])c1
[out] 97.8

[in] Please answer likewise for O=C(c1ccccc1)c1cc(O)c(O)c([N+](=O)[O-])c1 [Compound A, 3,4-dihydroxy-5-nitrobenzophenone]
[out] 98.7

[in] Please answer likewise for O=C(CCCCc1ccccc1)c1cc(O)c(O)c([N+](=O)[O-])c1
[out] 98.9

Switching to the query record.
[in] // returns reported % inhibition of COMT activity, liver, 1 h for input O=C(CCCc1ccccc1)c1cc(O)c(O)c([N+](=O)[O-])c1
[out] 95.3

----------
// reported % inhibition of COMT activity, brain, 9 h for each item listed
Target: brain COMT (Rattus norvegicus, UniProt P22734)
Construct: Aliquots of 0.5 ml of liver and whole brain homogenates were preincubated; from tissue; host or cells: whole brain homogenate of male Wistar rats
Sequence (P22734 whole entry): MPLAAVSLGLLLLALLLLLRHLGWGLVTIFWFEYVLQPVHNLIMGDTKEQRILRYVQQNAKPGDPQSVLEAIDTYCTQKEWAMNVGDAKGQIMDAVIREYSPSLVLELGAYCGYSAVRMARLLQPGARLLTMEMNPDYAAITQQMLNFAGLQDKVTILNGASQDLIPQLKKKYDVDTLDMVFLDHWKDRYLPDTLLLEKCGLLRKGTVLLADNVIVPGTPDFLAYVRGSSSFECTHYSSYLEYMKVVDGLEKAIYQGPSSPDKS
Test: Brain COMT activity in homogenates after administration of test compounds by gastric tube
Format: in vivo
Details: rat brain homogenate, 9 h after administration by gastric tube; mean ± S.E.M., n=4
Number only, in %; omit the unit.

// below: answered compounds
[in] // returns reported % inhibition of COMT activity, brain, 9 h for input O=C(CCCCc1ccccc1)c1cc(O)c(O)c([N+](=O)[O-])c1
[out] −6.7

[in] Please answer likewise for O=C(CCCc1ccccc1)c1cc(O)c(O)c([N+](=O)[O-])c1
[out] 12.2

Further cases:
[in] // returns reported % inhibition of COMT activity, brain, 9 h for input O=C(c1ccccc1)c1cc(O)c(O)c([N+](=O)[O-])c1 [Compound A, 3,4-dihydroxy-5-nitrobenzophenone]
[out] 34.9

[in] Please answer likewise for O=C(CCc1ccccc1)c1cc(O)c(O)c([N+](=O)[O-])c1
[out] 0.4

[in] Please answer likewise for Cc1ccc(C(=O)c2cc(O)c(O)c([N+](=O)[O-])c2)cc1 [Tolcapone, reference compound]
[out] 77.5

----------
// reported % inhibition of COMT activity, liver, 3 h for each item listed
Molecular target: liver COMT (Rattus norvegicus, UniProt P22734)
Construct: Aliquots of 0.5 ml of liver and whole brain homogenates were preincubated; from tissue; host or cells: liver homogenate of male Wistar rats
Assay: Liver COMT activity in homogenates after administration of test compounds by gastric tube
Format: in vivo
Conditions: rat liver homogenate, 3 h after administration by gastric tube; mean ± S.E.M., n=4
Number only, in %; omit the unit.

[in] // returns reported % inhibition of COMT activity, liver, 3 h for input O=C(CCc1ccccc1)c1cc(O)c(O)c([N+](=O)[O-])c1
[out] 95.0

[in] Please answer likewise for O=C(CCCCc1ccccc1)c1cc(O)c(O)c([N+](=O)[O-])c1
[out] 88.1

[in] Please answer likewise for O=C(CCCc1ccccc1)c1cc(O)c(O)c([N+](=O)[O-])c1
[out] 67.5

[in] Please answer likewise for O=C(c1ccccc1)c1cc(O)c(O)c([N+](=O)[O-])c1 [Compound A, 3,4-dihydroxy-5-nitrobenzophenone]
[out] 96.9

Switching to the query record.
[in] // returns reported % inhibition of COMT activity, liver, 3 h for input Cc1ccc(C(=O)c2cc(O)c(O)c([N+](=O)[O-])c2)cc1 [Tolcapone, reference compound]
[out] 98.0

----------
// reported % inhibition of COMT activity, brain, 3 h for each item listed
Molecular target: brain COMT (Rattus norvegicus)
Construct: Aliquots of 0.5 ml of liver and whole brain homogenates were preincubated; from tissue; host or cells: whole brain homogenate of male Wistar rats
Assay: Brain COMT activity in homogenates after administration of test compounds by gastric tube
Format: in vivo
Conditions: rat brain homogenate, 3 h after administration by gastric tube; mean ± S.E.M., n=4
Answer format reminder: number followed by unit.

// below: answered compounds
[in] // returns reported % inhibition of COMT activity, brain, 3 h for input O=C(CCc1ccccc1)c1cc(O)c(O)c([N+](=O)[O-])c1 [C]
[out] 59.8 ± 5.8%

[in] Please answer likewise for Cc1ccc(C(=O)c2cc(O)c(O)c([N+](=O)[O-])c2)cc1 [Tolcapone, reference compound]
[out] 97.0 ± 0.5%

[in] Please answer likewise for O=C(CCCc1ccccc1)c1cc(O)c(O)c([N+](=O)[O-])c1 [D]
[out] 33.5 ± 4.4%

[in] Please answer likewise for O=C(c1ccccc1)c1cc(O)c(O)c([N+](=O)[O-])c1 [Compound A, 3,4-dihydroxy-5-nitrobenzophenone]
[out] 97.0 ± 0.3%

Switching to the query record.
[in] // returns reported % inhibition of COMT activity, brain, 3 h for input O=C(CCCCc1ccccc1)c1cc(O)c(O)c([N+](=O)[O-])c1 [E]
[out] 25.0 ± 3.1%

----------
Target: brain COMT (Rattus norvegicus, UniProt P22734)
Construct: Aliquots of 0.5 ml of liver and whole brain homogenates were preincubated; from tissue; host or cells: whole brain homogenate of male Wistar rats
Assay: Brain COMT activity in homogenates after administration of test compounds by gastric tube
Type: in vivo
Settings: rat brain homogenate, 1 h after administration by gastric tube; mean ± S.E.M., n=4
metric: % inhibition of COMT activity, brain, 1 h

// below: answered compounds
[in] // returns reported % inhibition of COMT activity, brain, 1 h for input O=C(CCCc1ccccc1)c1cc(O)c(O)c([N+](=O)[O-])c1 [D]
[out] 69.3 ± 5.1%

[in] Please answer likewise for O=C(CCCCc1ccccc1)c1cc(O)c(O)c([N+](=O)[O-])c1 [E]
[out] 74.2 ± 4.2%

[in] Please answer likewise for Cc1ccc(C(=O)c2cc(O)c(O)c([N+](=O)[O-])c2)cc1 [Tolcapone, reference compound]
[out] 98.7 ± 0.2%

[in] Please answer likewise for O=C(CCc1ccccc1)c1cc(O)c(O)c([N+](=O)[O-])c1 [C]
[out] 86.2 ± 0.5%

Switching to the query record.
[in] // returns reported % inhibition of COMT activity, brain, 1 h for input O=C(c1ccccc1)c1cc(O)c(O)c([N+](=O)[O-])c1 [Compound A, 3,4-dihydroxy-5-nitrobenzophenone]
[out] 96.8 ± 0.3%
